# assayComment: in vivo
# Design: species or system mice
# runConditions: mouse, iv, 3.4 MBq, total radioactivity, Biodistribution, Brain
measure: tissue uptake at 2 h (%ID/g)
The reply should contain only the number, in %ID/g.

// returns reported tissue uptake at 2 h for input CC(=O)NC(CCCCNC(=O)CN1CCN(CC(=O)O)CCN(CC(=O)O)CCN(CC(=O)O)CC1)C(=O)N1CCCC1C(=O)N(C)C(CCCNC(=N)N)C(=O)NC(CCCNC(=N)N)C(=O)N1CCCC1C(=O)NC(Cc1ccc(O)cc1)C(=O)NC(C(=O)NC(CC(C)C)C(=O)O)C(C)(C)C (stereo not shown) [^68Ga-DOTA-NT-20.3, metal not drawn]
0.33

====

# assayComment: in vivo
# Set-up: species or system mice
# runConditions: mouse, iv, 3.4 MBq, total radioactivity, Biodistribution, Testis
# Experimental: Blood and major organs were harvested immediately, weighed, and counted using a γ-counter. The radioactivity of each sample was calculated as the percentage of injected dose per gram of tissue (%ID/g) and corrected for radioactive decay.
measure: tissue uptake at 0.25 h (%ID/g)
The reply should contain only the number, in %ID/g.

// returns reported tissue uptake at 0.25 h for input CC(=O)NC(CCCCNC(=O)CN1CCN(CC(=O)O)CCN(CC(=O)O)CCN(CC(=O)O)CC1)C(=O)N1CCCC1C(=O)N(C)C(CCCNC(=N)N)C(=O)NC(CCCNC(=N)N)C(=O)N1CCCC1C(=O)NC(Cc1ccc(O)cc1)C(=O)NC(C(=O)NC(CC(C)C)C(=O)O)C(C)(C)C (stereo not shown) [^68Ga-DOTA-NT-20.3, metal not drawn]
1.31

====

# assayComment: in vivo
# Set-up: species or system mice
# runConditions: mouse, iv, 3.4 MBq, total radioactivity, Biodistribution, Testis
measure: tissue uptake at 0.5 h (%ID/g)
The reply should contain only the number, in %ID/g.

// returns reported tissue uptake at 0.5 h for input CC(=O)NC(CCCCNC(=O)CN1CCN(CC(=O)O)CCN(CC(=O)O)CCN(CC(=O)O)CC1)C(=O)N1CCCC1C(=O)N(C)C(CCCNC(=N)N)C(=O)NC(CCCNC(=N)N)C(=O)N1CCCC1C(=O)NC(Cc1ccc(O)cc1)C(=O)NC(C(=O)NC(CC(C)C)C(=O)O)C(C)(C)C (stereo not shown) [^68Ga-DOTA-NT-20.3, metal not drawn]
0.8

====

# assayComment: in vivo
# Parameters: species or system mice
# runConditions: mouse, iv, 3.4 MBq, total radioactivity, Biodistribution, Kidney
measure: tissue uptake at 1 h
Provide a numeric answer, followed by its unit.

// returns reported tissue uptake at 1 h for input CC(=O)NC(CCCCNC(=O)CN1CCN(CC(=O)O)CCN(CC(=O)O)CCN(CC(=O)O)CC1)C(=O)N1CCCC1C(=O)N(C)C(CCCNC(=N)N)C(=O)NC(CCCNC(=N)N)C(=O)N1CCCC1C(=O)NC(Cc1ccc(O)cc1)C(=O)NC(C(=O)NC(CC(C)C)C(=O)O)C(C)(C)C (stereo not shown) [^68Ga-DOTA-NT-20.3, metal not drawn]
24.6 %ID/g

====

# assayComment: in vivo
# Parameters: species or system mice
# runConditions: mouse, iv, 3.4 MBq, total radioactivity, Biodistribution, Intestine
measure: tissue uptake at 2 h (%ID/g)
The reply should contain only the number, in %ID/g.

// returns reported tissue uptake at 2 h for input CC(=O)NC(CCCCNC(=O)CN1CCN(CC(=O)O)CCN(CC(=O)O)CCN(CC(=O)O)CC1)C(=O)N1CCCC1C(=O)N(C)C(CCCNC(=N)N)C(=O)NC(CCCNC(=N)N)C(=O)N1CCCC1C(=O)NC(Cc1ccc(O)cc1)C(=O)NC(C(=O)NC(CC(C)C)C(=O)O)C(C)(C)C (stereo not shown) [^68Ga-DOTA-NT-20.3, metal not drawn]
0.38
